FYI, the data here is from patent US10781181B2.

target: Human plasma kallikrein (Homo sapiens (Human)); test: Determination of the IC50 for plasma kallikrein; details: read-out: IC50 (human PKal)
Sequence (P03952 391-638): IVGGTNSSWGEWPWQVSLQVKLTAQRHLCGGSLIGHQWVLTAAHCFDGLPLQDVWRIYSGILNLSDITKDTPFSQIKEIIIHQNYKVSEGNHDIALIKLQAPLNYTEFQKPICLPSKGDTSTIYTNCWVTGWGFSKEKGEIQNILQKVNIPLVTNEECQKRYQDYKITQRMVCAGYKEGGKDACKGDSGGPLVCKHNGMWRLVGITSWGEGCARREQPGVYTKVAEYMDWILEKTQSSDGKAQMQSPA
Sequence (P03952 20-390 partner): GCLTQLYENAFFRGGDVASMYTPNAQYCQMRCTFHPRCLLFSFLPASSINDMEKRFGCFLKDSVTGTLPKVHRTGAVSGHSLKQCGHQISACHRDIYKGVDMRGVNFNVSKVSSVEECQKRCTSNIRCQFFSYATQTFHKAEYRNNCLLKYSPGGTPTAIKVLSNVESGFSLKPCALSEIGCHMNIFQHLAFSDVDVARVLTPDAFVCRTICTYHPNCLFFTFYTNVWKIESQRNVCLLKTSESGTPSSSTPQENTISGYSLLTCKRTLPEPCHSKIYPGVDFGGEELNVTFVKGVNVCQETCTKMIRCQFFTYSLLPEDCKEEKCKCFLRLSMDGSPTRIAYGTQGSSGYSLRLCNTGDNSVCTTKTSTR
// NB: equality with 0.1 µM counts as NOT MET; only IC50 strictly below is MET

Ask | Hi there! Is IC50 for `COCc1nn(Cc2ccc(Cn3ccccc3=O)cc2)cc1C(=O)NCCOc1cc(F)cc(Cl)c1` below 0.1 µM, do you know?
Reply | NOT MET

Ask | Hi there! Is IC50 for `Nc1nn(Cc2ccc(Cn3cc(F)ccc3=O)cc2)cc1C(=O)NCCOc1cccc(Cl)c1` below 0.1 µM, do you know?
Reply | MET

Ask | Hi there! Is IC50 for `Nc1c(C(=O)NCCOc2cccc(Cl)c2)cnn1Cc1ccc(Cn2ccccc2=O)cc1` below 0.1 µM, do you know?
Reply | MET

Ask | Hi there! Is IC50 for `CC(=O)N(C)Cc1ccc(Cn2cc(C(=O)NCCOc3cccc(Cl)c3)c(N)n2)cc1` below 0.1 µM, do you know?
Reply | NOT MET

Ask | Hi there! Is IC50 for `COc1cc(Cn2cc(C(=O)NCCOc3cccc(Cl)c3)c(N)n2)ccc1Cn1ccccc1=O` below 0.1 µM, do you know?
Reply | MET

Ask | Hi there! Is IC50 for `Cc1nc(C(=O)NCCOc2cccc(Cl)c2)cn1Cc1ccc(Cn2ccccc2=O)cc1` below 0.1 µM, do you know?
Reply | MET

Ask | Hi there! Is IC50 for `Nc1nn(Cc2ccc(Cn3ccccc3=O)cc2)cc1C(=O)NCCCn1cc(Cl)cn1` below 0.1 µM, do you know?
Reply | NOT MET

Ask | Hi there! Is IC50 for `N#Cc1nn(Cc2ccc(Cn3ccccc3=O)cc2)cc1C(=O)NCCOc1cccc(Cl)c1` below 0.1 µM, do you know?
Reply | MET

Ask | Hi there! Is IC50 for `CN(C)C(=O)N(C)Cc1ccc(Cn2cc(C(=O)NCCOc3cccc(Cl)c3)c(N)n2)cc1` below 0.1 µM, do you know?
Reply | NOT MET

Ask | Hi there! Is IC50 for `C[C@H](NC(=O)c1cn(Cc2ccc(Cn3ccccc3=O)cc2)nc1N)C(=O)N(C)c1cccc(Cl)c1` below 0.1 µM, do you know?
Reply | NOT MET

Ask | Hi there! Is IC50 for `C[C@@H](COc1cccc(Cl)c1)NC(=O)c1cn(Cc2ccc(Cn3ccccc3=O)cc2)nc1N` below 0.1 µM, do you know?
Reply | NOT MET

Ask | Hi there! Is IC50 for `Nc1nn(Cc2ccc(Cn3ccccc3=O)cc2)cc1C(=O)N[C@H]1CCN(c2cccc(Cl)c2)C1` below 0.1 µM, do you know?
Reply | MET

Ask | Hi there! Is IC50 for `Nc1nn(Cc2ccc(Cn3ccccc3=O)cc2)cc1C(=O)NCCOc1cccc(Cl)c1Cl` below 0.1 µM, do you know?
Reply | NOT MET

Ask | Hi there! Is IC50 for `CNC(=O)CNc1cc(Cn2cc(C(=O)NCCOc3cccc(Cl)c3)c(N)n2)ccn1` below 0.1 µM, do you know?
Reply | NOT MET

Ask | Hi there! Is IC50 for `Nc1nn(Cc2ccc(N3CCCC3=O)nc2)cc1C(=O)NCCOc1cccc(Cl)c1` below 0.1 µM, do you know?
Reply | NOT MET

Ask | Hi there! Is IC50 for `Nc1nn(Cc2ccc(Cn3ccccc3=O)cn2)cc1C(=O)NCCOc1cccc(Cl)c1` below 0.1 µM, do you know?
Reply | MET
